measurementTarget: pooled human IgG
metricName: Enzyme Activity Endpoint Assay (purified): Fc

q: May I ask what Enzyme Activity Endpoint Assay (purified): Fc has been recorded for PRT-659 (protein) MQITSVWTKGVTPLTPEQFRYNNEDVIHAPYLAHQGWYDITKAFDGKDNLLCGAATAGNMLHWWFDQNKTEIEAYLSKHPEKQKIIFNNQELFDLREAINTKDDQKDSKLFNYFREKAFPNLSARQLGVMPDLVLDMFINGYYLNVFKTQSTDVNRPYQDKDKRGGIFDAVFTRGDQTTLLTARHDLKNKGLNDISTIIKQELTEGRALALSHTYANVSISHVINLWGADFNAEGNLEAIYVTDSDANASIGMKKYFVGINAHGHVAISAKKIEGENIGAQVLGLFTLSSGKDIWQKLSLEHHHHHH ?
a: 499 ng/µL
